Values were extracted from the FLAb antibody collection (doi:10.7554/elife.23156).

B1: scFv; the commonest letter at each place (parent)
chain 1: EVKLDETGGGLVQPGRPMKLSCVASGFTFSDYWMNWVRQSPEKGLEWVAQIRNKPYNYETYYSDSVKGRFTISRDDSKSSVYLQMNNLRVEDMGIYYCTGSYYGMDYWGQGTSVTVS
chain 2: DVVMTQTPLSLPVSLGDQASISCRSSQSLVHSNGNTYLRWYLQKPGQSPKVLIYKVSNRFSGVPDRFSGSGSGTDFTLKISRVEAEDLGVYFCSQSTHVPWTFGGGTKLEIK

Variants of: B1
MEASUREMENT_DESCRIPTION: yeast surface expression (ratio to wild type); higher = more expressed
ASSAY_SETUP: format: scFv 4-4-20, heavy + light
RESULT_TYPE: yeast surface expression

Worked cases, yeast surface expression given:
chain 1 M34G	0.682
chain 1 S101D Y107S	0.672
chain 1 G100D D106W	0.254
chain 1 D31F V37E	0.257
chain 1 Y102A M105F	0.979
chain 1 Y107I W108S	0.786
chain 1 S30A W36H	0.457
chain 1 G100Q G104E	0.38

Lookup: Which yeast surface expression is listed for chain 1 D31R Y32I ?
Found: 0.818

Lookup: Which value of yeast surface expression has been reported for chain 1 W108K G109L in the records?
Found: 0.219

Lookup: Given the variant chain 1 T28M , what is its reported yeast surface expression?
Found: 1.02

Lookup: // returns reported yeast surface expression for input chain 1 G109S
Found: 0.826

Lookup: I would be grateful if you could share the reported yeast surface expression for chain 1 D106L W108I .
Found: 0.314

Lookup: So what does the record say about yeast surface expression for chain 1 Y102Q W108Q ?
Found: 0.508

Lookup: I am curious: what yeast surface expression value has been reported for chain 1 Y32K V37R ?
Found: 1.18

Lookup: Any idea what its yeast surface expression is? The variant is chain 1 W33D W36M
Found: 0.165

Lookup: Consider the variant shown here: chain 1 Y103F What is its recorded yeast surface expression?
Found: 1.06

Lookup: Give the measured yeast surface expression of chain 1 S101Q .
Found: 0.788

Lookup: yeast surface expression lookup needed for chain 1 S101W Y107W , thanks.
Found: 0.386

Lookup: Entry under review: chain 1 Y107L G109R . Reported yeast surface expression?
Found: 0.343

Lookup: Query (variant): chain 1 G100D D106Q ; field requested: yeast surface expression
Found: 0.17

Lookup: Looking for the measured yeast surface expression of chain 1 S101Y , can you help?
Found: 0.659

Lookup: What does the record list as yeast surface expression for chain 1 F29Y Y32S ?
Found: 0.95

Lookup: Reported yeast surface expression for chain 1 G109M : what is it?
Found: 0.213
